Tested on: PC-3 prostate
assayNotes: NCI-60 one-dose screen, 48 h (100 = growth as untreated, 0 = no growth, -100 = all killed)
measurementSetup: 10 µM unless noted
Compounds without any hit were thinned out: in the full panel of roughly 83,000, 20% have a hit.
Reported growth by item:
Give just the number in %; leave the unit off.

Recorded results for 2 compounds are shown here.
{"compound": "COc1ccc(C2=NN(C(=O)c3cc(OC)c(OC)c(OC)c3)C(c3ccc(N(C)C)cc3)C2)cc1 (stereo not given)", "measuredOn": "PC-3 prostate", "growth / %": 20.6}
{"compound": "CC(C)=CC(=O)N[C@@H]1CC2CCC3C(CC[C@@]4(C)C3CC[C@@H]4C(C)N(C)C)[C@@]2(C)C[C@@H]1O (stereo not given in full)", "measuredOn": "PC-3 prostate", "growth / %": 44.6}

### Prompt Give its growth value. Item: CCCC(O)Cn1ncc(C(=O)OCC)c1NC(=O)NCc1cccc(F)c1 (stereo not given)
### Response 83.6

### Prompt Would you kindly repeat that for C=CC1(C)C(O[Si](C)(C)C(C)(C)C)CC2C3OC(=O)NC31c1cccc3c1[C@H](C(=O)N3C)C2(C)C (stereo not given in full) ?
### Response 10.6

----------
System: NCI-H322M lung
assayNotes: NCI-60 one-dose screen, 48 h (100 = growth as untreated, 0 = no growth, -100 = all killed)
measurementSetup: 10 µM unless noted
About 83,000 compounds went through this panel and 20% of them were active in at least one assay; those are over-represented in the sample as a whole.
Classify: T when growth is strictly less than 50%; F when growth is not.

Previously resolved entries follow.
{"compound": "Nc1c(C(=O)Nc2ccccn2)sc2nc3c(cc12)C(O)CCC3 (stereo unspecified)", "class": "T"}
{"compound": "C[C@@H](CO)[C@@H]1CC[C@]2(C(=O)N3CCN(C)CC3)CC[C@]3(C)[C@H](CC[C@@H]4[C@@]5(C)CC[C@H](O)C(C)(C)[C@@H]5CC[C@]43C)[C@@H]12", "class": "F"}
{"compound": "O=C(CSc1nnc2sc(Nc3cccc(Cl)c3)nn12)c1ccc(F)cc1", "class": "F"}
{"compound": "Cn1cc(-c2nonc2-c2c[nH]c3ccccc23)c2ccccc21", "class": "T"}
{"compound": "CN(C)c1ccc(/C=C2/C=C(c3ccccc3)OC2=O)cc1", "class": "F"}

### Prompt Quick check: growth of O=C(O)CCCn1c(SCc2c(Cl)cccc2Cl)nc2ccsc2c1=O under 50%?
### Response T

----------
Test system: UO-31 renal
assayNotes: NCI-60 one-dose screen, 48 h (100 = growth as untreated, 0 = no growth, -100 = all killed)
measurementSetup: 10 µM unless noted
Compounds without any hit were thinned out: in the full panel of roughly 83,000, 20% have a hit.
reportedMetric: growth (%)
Hi! Could you send only the number? It should be in %, unit omitted.

Example compounds with recorded growth:
{"compound": "Clc1nn2c(Cn3cnc4c(NCc5ccccc5)ncnc43)nnc2c2ccccc12", "growth (%)": 21.7}
{"compound": "COc1cc(C2Cc3ncccc3-c3[nH]c(=O)c4cccnc4c32)cc(OC)c1OC (centres undefined)", "growth (%)": 38.6}
{"compound": "COc1ccc(-c2cc(C(=O)N3N=C(c4ccc(N)cc4)CC3c3ccccc3)c3ccccc3n2)cc1 (centres undefined)", "growth (%)": 45.5}
{"compound": "C=C(C)[C@@H]1CC[C@]2(CO)CC[C@]3(C)[C@H](CC[C@@H]4[C@@]5(C)CCC(NCCc6ccc(O)cc6)C(C)(C)[C@@H]5CC[C@]43C)[C@@H]12 (some centres undefined)", "growth (%)": -96.9}
{"compound": "O=C1C(Cl)=C(NCCN2CCOCC2)C(=O)c2ncccc21", "growth (%)": -75.7}

### Prompt Bench note: what growth did Nc1n[nH]c2ccc([C@@H]3Nc4cc5[nH]ncc5cc4[C@H]4C5CCC(C5)[C@@H]34)cc12 (some centres undefined) show?
### Response 40.2

### Prompt Input CCCCn1sc(=O)n(Cc2ccc(CNC(=O)OCc3ccc4c(Br)cc(Br)c(O)c4n3)cc2)c1=O
### Response 42.7

### Prompt Same question, O=C(N/N=C/c1ccc(Cl)cc1Cl)c1ccc2nc(-c3ccc(Cl)cc3)[nH]c2c1 this time
### Response 21.6

### Prompt Try the compound CCOC(=O)Cn1c(=O)c2c3ccccc3n(C)c2n2nnc(-c3ccccc3)c12
### Response 81.2

----------
Measured growth, listed per entry.
System: SR leukemia
assayNotes: NCI-60 one-dose screen, 48 h (100 = growth as untreated, 0 = no growth, -100 = all killed)
measurementSetup: 10 µM unless noted
Compounds without any hit were thinned out: in the full panel of roughly 83,000, 20% have a hit.
Number only, in %; omit the unit.

{"compound": "COc1ccc(NC(=O)c2cccc(C3CCc4c(cc(OC)c(OC)c4OC)O3)c2)cc1 (centres undefined)", "measuredOn": "SR leukemia", "growth / %": 5.23}
{"compound": "COc1ccc(-c2nnc(SCC(=O)Nc3ccc(/C(C)=N\\O)cc3)n2-c2ccccc2)cc1OC", "measuredOn": "SR leukemia", "growth / %": 95.4}
{"compound": "C[C@@H](CO)[C@@H]1CC[C@]2(C(=O)N3CCN(C)CC3)CC[C@]3(C)[C@H](CC[C@@H]4[C@@]5(C)CC[C@H](O)C(C)(C)[C@@H]5CC[C@]43C)[C@@H]12", "measuredOn": "SR leukemia", "growth / %": -12.4}

### Prompt Fill blank: measured growth of the compound Cc1[nH]c(C(=O)Nc2ccc(C(N)=O)cc2NC(C)C)c(Cl)c1Cl is ____.
### Response 103

### Prompt Next entry: CC/C=C\C/C=C/C=C1/C(=O)C=C[C@@H]1C/C=C\CCCC(=O)OC
### Response 5.21

### Prompt Ok, now Cc1cc2nc(-c3c(-c4ccc(F)cc4)nc4sccn34)[nH]c2cc1C
### Response 83.2

### Prompt What do you get for C[C@@H]1CC[C@@]2(OC1)O[C@H]1C[C@H]3[C@@H]4CC=C5C[C@@H](O[C@@H]6O[C@H](CO)[C@@H](O[C@@H]7O[C@@H](CO)[C@H](O)[C@H]7O)[C@H](O)[C@H]6O[C@@H]6O[C@@H](C)[C@H](O)[C@@H](O)[C@H]6O)CC[C@]5(C)[C@H]4CC[C@]3(C)[C@H]1[C@@H]2C ?
### Response -58.5

### Prompt Entry to check: COc1cc2cc(NCc3ccc(OC(F)F)cc3)nc(C)c2cc1OC
### Response 53.1

### Prompt What do we get for CCCCCCCCn1ccc2cc(NC(=O)Cn3cc(CN4CCOCC4)nn3)ccc21 ?
### Response 87.6

### Prompt Another compound to look at: CN1CCN(Cc2ccc(NC(=O)c3cncc(C#Cc4cncc5ncccc45)c3)cc2C(F)(F)F)CC1
### Response -37.7

### Prompt Next: O=C(Cn1nnc([N+](=O)[O-])n1)c1ccccc1
### Response 84.3

----------
System: 786-0 renal
assayNotes: NCI-60 one-dose screen, 48 h
measurementSetup: 10 µM unless noted
Compounds without any hit were thinned out: in the full panel of roughly 83,000, 20% have a hit. The source made the active and inactive calls. Rule for the calls: active = growth percent below 10; inactive = the rest.
Choose one outcome from this list and give only that: active, inactive

{"compound": "CNC(=O)c1c(NC(=O)c2ccc(C(C)(C)C)cc2)sc2c(CN(C)C)c(O)ccc12", "class": "active"}

### Prompt Dear all, I need the recorded test outcome for O=C1/C=C/[C@@H](O)[C@@H]2C[C@@H](O)C[C@H]2/C=C/CCC[C@H](CCOCc2ccccc2)O1 , thank you.
### Response active

### Prompt Here is the next compound: Cc1ccc(C)c2c1C(O)(C#Cc1ccccc1)c1ccccc1C2(O)C#Cc1ccccc1 (stereo not given)
### Response inactive

### Prompt How about CCCCCSB(SCCCCC)c1ccccc1 ?
### Response inactive

### Prompt Please answer likewise for COc1ccc(-c2nnc(SCC(=O)Nc3ccc(/C(C)=N\O)cc3)n2-c2ccccc2)cc1OC
### Response inactive

----------
Test system: UACC-257 melanoma
assayNotes: NCI-60 one-dose screen, 48 h
measurementSetup: 10 µM unless noted
This is part of a sample that, as a whole, favours compounds with a hit. Of some 83,000 tested, about 20% had one in any assay. Calls of active or inactive are those of the source. The calls were made as follows: active = growth percent below 10; inactive = the rest.
Bench note: report the call from class 1 for active, class 0 for inactive

Reference set (5 entries):
{"compound": "COc1cccc(/C=C/C(=O)c2cc3c(N)c(C(=O)Nc4cccc(Cl)c4C)sc3nc2C)c1", "class": "class 0"}
{"compound": "Oc1c(Cl)cc(Cl)c2ccc(Cn3cc(-c4cccc(C(F)(F)F)c4)nn3)nc12", "class": "class 0"}
{"compound": "Cc1ccc(C)c(-n2c(-c3ccc(Br)cc3)csc2=NC(=O)c2ccccc2F)c1", "class": "class 0"}
{"compound": "Clc1ccc(-c2cn3ccsc3n2)c(Cl)c1Cl", "class": "class 0"}
{"compound": "C[N+](C)(C/C=C/c1ccccc1)Cc1ccccc1", "class": "class 0"}

### Prompt For this compound, state the assay outcome: CCOC(=O)NN1CC(O)=C(c2nc(-c3ccc(Br)cc3)cs2)C1=N
### Response class 0

### Prompt Likewise for COc1cc2c(c(OC)c1OC)C(=O)N[C@@H]1[C@@H](O)[C@@H](O)[C@H](O)C[C@@H]21 ?
### Response class 0

### Prompt Next record, please: Cc1nc2ccccc2c(/C=C/c2ccc(C(F)(F)F)cc2)c1C(=O)/C=C/c1ccccc1
### Response class 1

### Prompt Also need O=C(CN1CCN(c2cc3c(cc2F)c(=O)c(C(=O)O)cn3C2CC2)CC1)N/N=C/c1ccncc1 , thanks.
### Response class 0

### Prompt Could you do the same for O=c1[nH]cnc2c1C(c1ccc(Br)cc1)c1sc3c(F)cccc3c1O2 (stereo not given) , please?
### Response class 0
